# test_description: Area under curve was determined by HPLC at a dosage of 2.27 mg/kg administered intravenously by bolus method in dog
# Format: ADME, organism-based, Canis lupus familiaris
# Set-up: dose 2.27 mg/kg, route intravenous
# experimental_context: in vivo, iv
measure_name: AUC
Answer by giving the amount and then stating its unit.

Which measured AUC value corresponds to `C#C[C@H](CC(=O)O)NC(=O)CCC(=O)Nc1ccc(C(=N)N)cc1` ?
2490 ng·h/mL
